Test system: PDL-1 signaling
Assay: Luciferase assay (Table 1)
Format: cell-based
observation type: EC50 (µM)
The reply should be a number in µM, with the unit left off.

Worked cases, answers included:
>>> reported("NCc1cc(NC(=O)Cc2ccc(F)cc2)cc(C(=O)NC2(C(N)=O)CC2)c1 [compound 4]")
15.7
>>> reported("CC(C)(NC(=O)c1cc(NC(=O)Cc2ccc(F)cc2)cc(CN)c1F)C(N)=O [compound 16]")
20.6
>>> reported("CC(C)(NC(=O)c1ccc(CN)c(NC(=O)Cc2ccccc2)c1)C(N)=O [compound 14]")
1.19
>>> reported("CC(C)(NC(=O)c1ccc(CN)c(NC(=O)Cc2ccc(F)cc2)c1)C(N)=O [compound 13]")
20.4
>>> reported("CC(C)(NC(=O)C1(NC(=O)Cc2ccc(F)cc2)CCNCC1)C(N)=O [compound 23]")
9.02
>>> reported("CN(C)Cc1cc(NC(=O)Cc2ccc(F)cc2)cc(C(=O)NC(C)(C)C(N)=O)c1 [compound 17]")
0.21
>>> reported("NCc1cc(NC(=O)Cc2ccc(F)cc2)cc(C(=O)NCC(N)=O)c1 [compound 9]")
0.07

Consider the additional molecule presented here.
Which value of EC50 has been reported for NC(=O)C1(NC(=O)C2(NC(=O)Cc3ccc(F)cc3)CCNCC2)CC1 [compound 25] in the records? 0.36
